The reported numbers originate from ChEMBL document CHEMBL3860041.

# TEST_SUMMARY: Growth inhibition of human PC3 cells at 10 uM after 48 hrs by SRB assay relative to control
# Type: functional
# CONDITIONS_USED: PC-3, 48 h, read-out: GI
Rule: 1 for inhibition of growth at 10 µM not less than 40%, -1 for anything less.

Worked set:
- COc1cc(CSc2nc3ccc(C)cc3c(=O)n2Cc2ccccc2)cc(OC)c1OC: 1
- COc1cc(CSc2nc3ccc(Cl)cc3c(=O)n2Cc2ccccc2)cc(OC)c1OC: 1
- COc1ccc(CSc2nc3cc(OC)c(OC)cc3c(=O)n2-c2ccc(OC)cc2OC)cc1: 1

## Input Is inhibition of growth at 10 µM at least 40%? Consider "COc1ccc(-n2c(SCc3cc(OC)c(OC)c(OC)c3)nc3ccc(C)cc3c2=O)c(OC)c1"
## Output 1

## Input Is inhibition of growth at 10 µM at least 40%? Consider "COc1cc2nc(SCc3cc(OC)c(OC)c(OC)c3)n(Cc3ccccc3)c(=O)c2cc1OC"
## Output 1

====

# System: Cancer cell lines
# TEST_SUMMARY: Potency index, ratio of 5-fluorouracil GI50 to compound GI50 for human CNS cancer cells
# Type: functional
OBSERVABLE: RatioGI50

Here's what some known entries look like.
- COc1ccc(-n2c(SCc3cc(OC)c(OC)c(OC)c3)nc3ccc(C)cc3c2=O)c(OC)c1: 2 - 10
- COc1cc2nc(SCc3cc(OC)c(OC)c(OC)c3)n(Cc3ccccc3)c(=O)c2cc1OC: 2 - 10
- COc1cc(CSc2nc3ccc(C)cc3c(=O)n2-c2ccccc2)cc(OC)c1OC: 10
- COc1cc(CSc2nc3ccc(Cl)cc3c(=O)n2Cc2ccccc2)cc(OC)c1OC: 2 - 10
- COc1cc(CSc2nc3ccc(C)cc3c(=O)n2Cc2ccccc2)cc(OC)c1OC: 10

## Input Provide measured RatioGI50 value, entry: "COc1ccccc1-n1c(SCc2cc(OC)c(OC)c(OC)c2)nc2ccc(Cl)cc2c1=O"
## Output 2 - 10

## Input Provide measured RatioGI50 value, entry: "COc1ccc(-n2c(SCc3cc(OC)c(OC)c(OC)c3)nc3ccc(C)cc3c2=O)cc1"
## Output 2 - 10

====

Measured inhibition of growth at 10 µM of individual entries
# TEST_SUMMARY: Growth inhibition of human T47D cells at 10 uM after 48 hrs by SRB assay relative to control
# Format: functional
# CONDITIONS_USED: read-out: GI
Express the result in % but write the number alone.

Here's what some known entries look like.
- COc1cc(CSc2nc3ccc(Cl)cc3c(=O)n2Cc2ccccc2)cc(OC)c1OC: 66.1
- COc1cc(CSc2nc3ccc(C)cc3c(=O)n2-c2ccccc2)cc(OC)c1OC: 71.8

## Input Provide measured inhibition of growth at 10 µM value, entry: "COc1ccc(-n2c(SCc3cc(OC)c(OC)c(OC)c3)nc3ccc(Cl)cc3c2=O)cc1"
## Output 23.9

## Input Provide measured inhibition of growth at 10 µM value, entry: "COc1ccc(CSc2nc3cc(OC)c(OC)cc3c(=O)n2-c2ccc(OC)cc2OC)cc1"
## Output 24.4

## Input Provide measured inhibition of growth at 10 µM value, entry: "COc1ccc(-n2c(SCc3cc(OC)c(OC)c(OC)c3)nc3ccc(C)cc3c2=O)c(OC)c1"
## Output 66.9
